# method: Inhibition of beta-hematin formation
# Assay type: functional
Would you kindly list IC50 for each of these compounds?
State the answer as a number, implicitly in µM.

Enquiry: Fill in the blank: the reported IC50 of COc1cc(NC(C)CCCNC(=O)C[C@H](NC(=O)[C@@H](N)CCCNC(=N)N)C(=O)O)c2ncccc2c1 (some centres undefined) is ____.
Return: 120

Enquiry: Fill in the blank: the reported IC50 of COc1cc(NC(C)CCCNC(=O)[C@H](CCCN)NC(=O)[C@@H](N)CCCN)c2nc(C(C)(C)C)ccc2c1 (some centres undefined) is ____.
Return: 85

Enquiry: Fill in the blank: the reported IC50 of COc1cc(NC(C)CCCNC(=O)C[C@H](NC(=O)[C@@H](N)CCCNC(=N)N)C(=O)O)c2nc(C(C)(C)C)ccc2c1 (some centres undefined) is ____.
Return: 115

Enquiry: Fill in the blank: the reported IC50 of COc1cc(NC(C)CCCNC(=O)[C@H](CCCNC(=N)N)NC(=O)[C@@H](N)CCCNC(=N)N)c2ncccc2c1 (some centres undefined) is ____.
Return: 81
